Target: T1, wild-type human PTH/PTHrP receptor (hP1R-WT) (human, UniProt Q03431 27-593)
T1 sequence (looked up): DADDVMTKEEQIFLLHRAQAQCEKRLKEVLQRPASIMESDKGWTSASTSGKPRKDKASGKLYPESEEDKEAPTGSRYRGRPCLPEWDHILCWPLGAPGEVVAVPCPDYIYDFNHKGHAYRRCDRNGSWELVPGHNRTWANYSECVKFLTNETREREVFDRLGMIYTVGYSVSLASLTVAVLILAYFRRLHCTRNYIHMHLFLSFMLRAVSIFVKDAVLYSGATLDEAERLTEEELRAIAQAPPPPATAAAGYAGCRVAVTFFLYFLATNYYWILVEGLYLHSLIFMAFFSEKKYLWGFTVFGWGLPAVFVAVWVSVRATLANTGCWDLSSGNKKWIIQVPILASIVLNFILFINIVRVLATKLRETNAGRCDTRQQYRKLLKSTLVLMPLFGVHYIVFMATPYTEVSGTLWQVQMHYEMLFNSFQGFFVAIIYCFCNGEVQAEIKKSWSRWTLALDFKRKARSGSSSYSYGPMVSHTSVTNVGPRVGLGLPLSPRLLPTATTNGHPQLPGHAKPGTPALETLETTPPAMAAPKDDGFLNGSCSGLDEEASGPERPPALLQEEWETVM
Experiment: cell-based or functional assay
Square brackets hold non-standard residues; d marks the D form. Ends that are not written are not given here. hArg = N=C(N)NCCCC[C@H](N)C(=O)O; Aib = CC(C)(N)C(=O)O
So I've got a bunch of binders here, and I need their cAMP EMax(obs.) values.
Hi, when you answer, please include the unit after the number. Thanks!

Item under review: [Aib]V[Aib]EIQLMHQ[hArg]AKW-NH2 (N-terminus assumed; SMILES CC[C@H](C)[C@H](NC(=O)[C@H](CCC(=O)O)NC(=O)C(C)(C)NC(=O)[C@@H](NC(=O)C(C)(C)N)C(C)C)C(=O)N[C@@H](CCC(N)=O)C(=O)N[C@@H](CC(C)C)C(=O)N[C@@H](CCSC)C(=O)N[C@@H](Cc1c[nH]cn1)C(=O)N[C@@H](CCC(N)=O)C(=O)N[C@@H](CCCCNC(=N)N)C(=O)N[C@@H](C)C(=O)N[C@@H](CCCCN)C(=O)N[C@@H](Cc1c[nH]c2ccccc12)C(N)=O, also called 671 [Aib^1,3, M]PTH (1-14); 671 [Aib^1,3M]PTH(1-14)) [[Aib^1,3,M]PTH(1-14)] . Reported cAMP EMax(obs.)?
240 pmole/well

# lookup: cAMP EMax(obs.) of [Aib]V[Aib]EIQLMHQ-NH2 (N-terminus assumed; SMILES CC[C@H](C)[C@H](NC(=O)[C@H](CCC(=O)O)NC(=O)C(C)(C)NC(=O)[C@@H](NC(=O)C(C)(C)N)C(C)C)C(=O)N[C@@H](CCC(N)=O)C(=O)N[C@@H](CC(C)C)C(=O)N[C@@H](CCSC)C(=O)N[C@@H](Cc1c[nH]cn1)C(=O)N[C@@H](CCC(N)=O)C(N)=O, also called 684 [Aib^1,3, M]PTH (1-10); [Aib^1,3,M]PTH(1-10)) [[Aib^1,3,Gln^10]PTH(1-10)]
120 pmole/well

Name the recorded cAMP EMax(obs.) for AVSEIQLXHNLGKHLASVERXQWLRKKLQDVHNY (Nle (norleucine) at 8 and 21; C-terminal amide, also called 92 PTH(1-34); 92.5 PTH(1-34)) [[Nle^8,21,Tyr^34]PTH(1-34)amide (rat sequence)] .
240 pmole/well
